- TEST SUMMARY: qHTS RealTime-Glo MT Cell Viability Assay in HEK293 cells - 40 hour (AID 1224874); note: % is set by controls: 0 for no effect and ±100 for the full control effect; nearly all actives have a fitted effect of over 50% in size
- CONDITION SET: RealTime-Glo luminescence; active compounds read low
Records with an inconclusive call do not appear.
MEASURED METRIC: max response (%)
Numeric answer only, unit % assumed.

Some solved entries appear below for comparison.
| COMPOUND | max response [%] |
| --- | --- |
| CNC(=O)Oc1cc(C)cc(C(C)C)c1 | 5.9 |
| COP(=S)(OC)Oc1ccc([N+](=O)[O-])c(C)c1 | -0.352 |
| Clc1cc(Cl)c(-c2cc(Cl)c(Cl)cc2Cl)cc1Cl | 1.25 |
| CCCCC(CC)COC(=O)OOC(C)(C)C (stereo not drawn) | 0.0606 |
| CN1[C@@H]2CC[C@H]1CC(O)C2 (stereo partly drawn) | 15.4 |
| O=[N+]([O-])c1ccccc1-c1ccccc1 | 4.62 |
| CCOC(=O)Cc1ccccc1 | 17.4 |
| c1csc(-c2ccc(-c3cccs3)s2)c1 | -2.2 |

Now let's try a different one.
max response reading for CC[N+]1(CC)CCC(OC(=O)C(O)(c2ccccc2)c2ccccc2)C1 (stereo not drawn) : 2.71
